These data points were gathered from paper PMC6332122.

Molecular target: VEGF165 (UniProt P15692-4 27-191)
Sequence (P15692 other isoform, or with tags, fused parts or gaps): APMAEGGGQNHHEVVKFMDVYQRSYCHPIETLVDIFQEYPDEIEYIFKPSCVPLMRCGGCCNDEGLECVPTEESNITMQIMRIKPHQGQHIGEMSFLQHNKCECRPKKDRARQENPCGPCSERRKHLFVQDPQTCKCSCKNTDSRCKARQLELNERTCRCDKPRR
Assay: SPR; SPR: PBS (137 mM NaCl, 2.7 mM KCl, 8 mM Na2HPO4, 2 mM KH2PO4) pH 7.4, 25 °C, protein on CM5; EMSA: 50 mM Tris-HCl, 100 mM KCl, pH 7.5, room temperature, 1 uM RNA, 15% PAGE in TBE
Conditions: protein: commercial; label: 5' fluorescein for EMSA; none for SPR; parallel G4
Metric: Kd (nM)

>>> df
                                     binder  quantitative_readout
0  GGGGGCGGGAGCCAGAGACCAGUGGGCAGGG (structured_RNA) [VEGFA intronic G4_1]                   140
